The measurements presented in this section are drawn from patent US20220106398A1.

Below, each of the binders is paired with its reported mGITR-His/BKG value.
Target: T1, mouse His6-GITR (mouse, UniProt O35714 20-153)
T1 construct: His6-tagged recombinant protein; also called mGITR-His; mouse GITR-His
T1 sequence: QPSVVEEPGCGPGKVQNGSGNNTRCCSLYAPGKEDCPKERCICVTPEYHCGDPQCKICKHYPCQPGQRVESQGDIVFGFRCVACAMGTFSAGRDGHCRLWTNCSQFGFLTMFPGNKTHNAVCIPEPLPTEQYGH
Assay: ELISA, scFv periplasmic extract on coated His6-GITR

BINDER | UNIT TAG | mGITR-His/BKG
GITR-Mab-34 scFv (scFv, V domains shown, scFv in periplasmic extract, V5 tag) VH: EVQLLESGGGLVQPGGSLRLSCAASGFTFSSYWMHWVRQAPGKGLEWVSVISNSGGATYYADSVKGRFTISRDNSKNTLYLQMNSLRAEDTAVYYCAREGWGYGMDVWGQGTTVTVSS VL: DIQMTQSPSSLSASVGDRVTITCRASQDIRNYLAWYQQKPGKAPKLLIYTASTLQSGVPSRFSGSGSGTDFTLTISSLQPEDFATYYCQQTFRTPLTFGGGTKVEIK | fold over background | 1.2
GITR-Mab-18 scFv (scFv, V domains shown, scFv in periplasmic extract, V5 tag) VH: EVQLLESGGGLVKPGGSLRLSCAASGFTFSSYWMSWVRQAPGKGLEWVSGISWNGGTVGYADSVKGRFTISRDDSKNTLYLQMNSLKTEDTAVYYCAKLGIAVKSHWYFDLWGRGTLVTVSS VL: DIQMTQSPSSLSASVGDRVTITCRASESISTWLAWYQQKPGKAPKLLIYAASSLQSGVPSRFSGSGSGTDFTLTISSLQPEDFATYYCQQSYTLPLTFGGGTKLEIK | fold over background | 1
